Below, each of the molecules is paired with its reported IC50 value.
Test system: SMN2 mRNA
Assay: Gene panel canonical junction qPCR assay, SMN2 CJ mRNA decrease
Type: cell-based, human
Conditions: decrease in CJ mRNA levels, read-out: SMN2 IC50

>  <molecule>
Cc1cn2cc(NC(=O)c3sc(C4CCNCC4)cc3F)cc(F)c2n1 [Compound 650]

>  <IC50>
> 10 µM

$$$$

# ---- query molecule ----
Prompt: Which IC50 is reported for this molecule? Cc1cn2cc(NC(=O)c3sc(C4CCNCC4)cc3F)cc(F)c2n1 [Compound 617]
Completion: 1 to 10 µM

====

Below, each of the compounds is paired with its reported IC50 value.
Test system: MYB mRNA
Test: Splicing RT-qPCR assay, MYB canonical (CJ) and alternative (AJ) junction mRNA
Format: cell-based
Details: Homo sapiens, decrease in canonical junction mRNA, A673 or K562 cells, 24 hours

// below: answered compounds
>  <chemical structure>
Cc1cnc2c(N3CCC(N(C)C)CC3)ccc(C(=O)Nc3cc(F)c4nc(C)cn4c3)c2n1

>  <result>
< 100 nM

$$$$
>  <chemical structure>
Cc1cn2cc(NC(=O)c3ccc(N4CCNC5(CCOCC5)C4)c4nccnc34)cc(F)c2n1

>  <result>
100 to 1000 nM

$$$$

# ---- query compound ----
Prompt: Which IC50 is reported for this compound? COc1cnc2c(N3CCNCC3)ccc(C(=O)Nc3cc(F)c4nc(C)cn4c3)c2n1
Completion: < 100 nM

====

Below, each of the compounds is paired with its reported IC50 value.
Test system: HiBiT-tagged HTT protein
Assay: HiBiT protein abundance assay, HTT (K562 HiBiT knock-in cells)
Assay type: cell-based, human
Conditions: 24 hours

// below: answered compounds
>  <compound>
Cc1cn2cc(NC(=O)c3ccc(N4C[C@H](C)N[C@@H](C)C4)c4nccnc34)cc(F)c2n1

>  <IC50>
100 to 1000 nM

$$$$
>  <compound>
CCNC1CCN(c2ccc(C(=O)Nc3cc(F)c4nc(C)cn4c3)c3nc(C)ccc23)CC1

>  <IC50>
100 to 1000 nM

$$$$
>  <compound>
Cc1cn2cc(NC(=O)c3ccc(N4CCNCC4)c4nnccc34)cc(F)c2n1 [Compound 166, 2,2,2-trifluoroacetate]

>  <IC50>
> 10000 nM

$$$$
>  <compound>
CNc1nc(NC(=O)c2ccc(N3C[C@@H](C)N[C@@H](C)C3)c3nccnc23)cn2cc(C)nc12

>  <IC50>
> 10000 nM

$$$$
>  <compound>
Cc1cn2cc(NC(=O)c3ccc(N4CCN5CCC[C@H]5C4)c4ccnnc34)cc(F)c2n1

>  <IC50>
1000 to 10000 nM

$$$$

Prompt: Which IC50 is reported for this compound? Cc1cn2cc(NC(=O)c3ccc(N(C)[C@@H]4C[C@H]5CC[C@@H](C4)N5)c4ccnnc34)cc(F)c2n1
Completion: > 10000 nM

Prompt: Which IC50 is reported for this compound? Cc1cn2cc(NC(=O)c3ccc(N4CCN(C)[C@H](C)C4)c4ccnnc34)cc(F)c2n1
Completion: 1000 to 10000 nM

====

System: MYB mRNA
Assay: Splicing RT-qPCR assay, MYB canonical (CJ) and alternative (AJ) junction mRNA
Type: cell-based
Conditions: Homo sapiens, decrease in canonical junction mRNA, A673 or K562 cells, 24 hours
Procedure: Compounds described herein were used to modulate RNA transcript abundance in cells. The expression of a target mRNA was measured by detecting the formation of an exon-exon junction in the canonical transcript (CJ). A compound mediated exon-inclusion event was detected by observing an increase in formation of a new junction with an alternative exon (AJ). Real-time qPCR assays were used to detect these splicing switches and interrogate the potency of various compounds towards different target genes. […]
Below, each of the compounds is paired with its reported IC50 value.

>  <compound>
Cc1cn2cc(NC(=O)c3ccc(N4CC(C)NC(C)C4)c4nc(C)c(C)nc34)cc(F)c2n1 (centres unmarked)

>  <result>
100 to 1000 nM

$$$$
>  <compound>
Cc1cn2cc(NC(=O)c3ccc(N4CCC5(CCN5)C4)c4nccnc34)cc(F)c2n1 (centres unmarked)

>  <result>
100 to 1000 nM

$$$$
>  <compound>
Cc1cn2cc(NC(=O)c3ccc(N4C[C@@H](C)N[C@@H](C)C4)c4cccnc34)cc(F)c2n1

>  <result>
100 to 1000 nM

$$$$
>  <compound>
Cc1cn2cc(NC(=O)c3ccc(N4C[C@@H](C5CC5)N[C@@H](C)C4)c4nccnc34)cc(F)c2n1

>  <result>
100 to 1000 nM

$$$$

Prompt: Which IC50 is reported for this compound? CCNC1CCN(c2ccc(C(=O)Nc3cc(F)c4nc(C)cn4c3)c3nc(C)ccc23)CC1
Completion: < 100 nM

Prompt: Which IC50 is reported for this compound? Cc1cn2cc(NC(=O)c3ccc(N4CCC(N5CCCC5)C4)c4ccnnc34)cc(F)c2n1 (centres unmarked)
Completion: 1000 to 10000 nM

Prompt: Which IC50 is reported for this compound? Cc1cn2cc(NC(=O)c3ccc(C4=CCNCC4)c4nccnc34)cc(F)c2n1
Completion: < 100 nM

Prompt: Which IC50 is reported for this compound? Cc1cn2cc(NC(=O)c3ccc(N4CCC(NC5CC5)CC4)c4nccnc34)cc(F)c2n1
Completion: 100 to 1000 nM

Prompt: Which IC50 is reported for this compound? CCOc1cnc2c(N3C[C@@H](C)N[C@@H](C)C3)ccc(C(=O)Nc3cc(F)c4nc(C)cn4c3)c2n1
Completion: < 100 nM

Prompt: Which IC50 is reported for this compound? Cc1cn2cc(NC(=O)c3ccc(N4CCNCC4)c4ccnnc34)ncc2n1
Completion: 100 to 1000 nM

Prompt: Which IC50 is reported for this compound? Cc1cn2cc(NC(=O)c3ccc(N4CC[C@@H](N(C)C)C4)c4nccnc34)cc(F)c2n1
Completion: 100 to 1000 nM

====

Below, each of the compounds is paired with its reported IC50 value.
Tested on: HiBiT-tagged MYB protein
Assay: HiBiT protein abundance assay, MYB (K562 HiBiT knock-in cells)
Assay type: cell-based, human
Settings: 24 hours
Counter-ions that a name gives are not always drawn.

// below: answered compounds
>  <compound>
Cc1nc2c(F)cc(NC(=O)c3ccc(N4CCNCC4)c4ccnnc34)cc2s1 [Compound 118]

>  <IC50>
< 100 nM

$$$$
>  <compound>
CNCC1CCN(c2ccc(C(=O)Nc3cc(F)c4nc(C)cn4c3)c3nccnc23)CC1 [Compound 192, trifluoroacetate]

>  <IC50>
1000 to 10000 nM

$$$$
>  <compound>
Cc1cn2cc(NC(=O)c3ccc(N4CCNC5(CC5)C4)c4cccnc34)cc(F)c2n1 [Compound 341]

>  <IC50>
100 to 1000 nM

$$$$

Prompt: Which IC50 is reported for this compound? Cc1cn2cc(NC(=O)c3ccc(N4CCC5(CCN5)CC4)c4nccnc34)cc(F)c2n1 [Compound 189]
Completion: < 100 nM

Prompt: Which IC50 is reported for this compound? Cc1cn2cc(NC(=O)c3ccc(N4C[C@@H](C)N[C@@H](C)C4)c4ncc(OC5CC5)nc34)cc(F)c2n1 [Compound 351]
Completion: 100 to 1000 nM

Prompt: Which IC50 is reported for this compound? CN[C@H]1CCN(c2ccc(C(=O)Nc3cc(F)c4nc(C)cn4c3)c3nccnc23)C1 (single isomer, unassigned) [Compound 194]
Completion: < 100 nM

Prompt: Which IC50 is reported for this compound? Cc1cn2cc(NC(=O)c3ccc(N4CCC5(CCN5)C4)c4nccnc34)cc(F)c2n1 (stereo not shown) [Compound 339]
Completion: 100 to 1000 nM

====

Test system: MYB mRNA
Assay: Splicing RT-qPCR assay, MYB canonical (CJ) and alternative (AJ) junction mRNA
Assay type: cell-based
Conditions: Homo sapiens, decrease in canonical junction mRNA, A673 or K562 cells, 24 hours
Below, each of the compounds is paired with its reported IC50 value.

// below: answered compounds
>  <chemical structure>
Cc1cn2cc(NC(=O)c3ccc(N4CCN[C@H](C)C4)c4ccnnc34)cc(F)c2n1

>  <IC50>
< 100 nM

$$$$
>  <chemical structure>
Cc1cn2cc(NC(=O)c3ccc(N4CCNC5(CC5)C4)c4nccnc34)cc(F)c2n1

>  <IC50>
< 100 nM

$$$$
>  <chemical structure>
COc1nc(NC(=O)c2ccc(N3C[C@@H](C)N[C@@H](C)C3)c3cccnc23)cn2cc(C)nc12

>  <IC50>
100 to 1000 nM

$$$$

Prompt: Which IC50 is reported for this compound? CN[C@@H]1CCN(c2ccc(C(=O)Nc3cc(F)c4nc(C)cn4c3)c3nc(OC)cnc23)C1
Completion: 1000 to 10000 nM

Prompt: Which IC50 is reported for this compound? Cc1cn2cc(NC(=O)c3ccc(N4CCC(NC(C)(C)C)CC4)c4ccnnc34)cc(F)c2n1
Completion: 100 to 1000 nM

Prompt: Which IC50 is reported for this compound? COc1ccc2c(N3CCNCC3)ccc(C(=O)Nc3cc(F)c4nc(C)cn4c3)c2n1
Completion: < 100 nM

Prompt: Which IC50 is reported for this compound? Cc1cn2cc(NC(=O)c3ccc(N4CCC(N)(CF)CC4)c4nccnc34)cc(F)c2n1
Completion: 1000 to 10000 nM

Taken from patent US20240409536A1.
